// provenance: paper PMC9061822

Assay: Pharmacokinetics in ICR mice
Format: in vivo
Settings: mouse, plasma, iv, 10 mg/kg, read-out: Vss

| compound_smiles | unit_string | Vd |
| --- | --- | --- |
| COc1ccc(-c2csc(N/N=C(\C)c3nc4ccccc4[nH]3)n2)cc1 | L/kg | 0.75 |

----------
Assay: Pharmacokinetics in ICR mice
Assay type: in vivo
Details: mouse, plasma, iv, 10 mg/kg, read-out: MRTINF_obs

| compound_smiles | MRT inf [min] |
| --- | --- |
| COc1ccc(-c2csc(N/N=C(\C)c3nc4ccccc4[nH]3)n2)cc1 | 26.4 |

----------
Experiment: Metabolic stability in rat liver microsomes
Assay type: in vitro ADME
Conditions: read-out: intrinsic clearance (converted)

| molecule | CLint scaled (mL/min/kg) |
| --- | --- |
| COc1ccc(-c2csc(N/N=C(\C)c3nc4ccccc4[nH]3)n2)cc1 [SFI003] | 46.7 |
